# System: UO-31
# assay-method-text: NCI tumour cell line growth inhibition, 48 h
Calls of active or inactive are those of the source. Cut-off read from the data, not from the text of the source: active = GI50 up to about 1.1 µM and inactive = higher.
measured-parameter: GI50

Indicate the recorded GI50 value for this molecule: C=C1C2Oc3ccccc3C1N(c1ccccc1)O2 (configuration not stated) 47.9 µM (inactive)

Indicate the recorded GI50 value for this molecule: O=C(Cn1ccnc1[N+](=O)[O-])NCCO > 100 µM (inactive)

Indicate the recorded GI50 value for this molecule: CCOC(=O)c1cnc2c(ccc3ncccc32)c1OCC > 100 µM (inactive)

Indicate the recorded GI50 value for this molecule: O=C1C=C(C2=CC(=O)C(=O)c3ccccc32)c2ccccc2C1=O 6.14 µM (inactive)

Indicate the recorded GI50 value for this molecule: CC(N)C(C)c1ccccc1 (configuration not stated) > 100 µM (inactive)

Indicate the recorded GI50 value for this molecule: O=C1c2ccccc2C2CCC1c1ccccc12 (configuration not stated) 21.1 µM (inactive)

Indicate the recorded GI50 value for this molecule: CC(C)c1cccc2sc(NC(=O)C(=O)CC(=O)c3ccc(F)cc3)nc12 > 100 µM (inactive)

Indicate the recorded GI50 value for this molecule: COc1ccc(/C=C2\C(=O)N(NC(C)=O)c3ccccc32)cc1 37.4 µM (inactive)

Indicate the recorded GI50 value for this molecule: CCOC(=O)[C@@]1(C(C)=O)CC(C)=C(C)C[S@@+]1[O-] > 100 µM (inactive)

Indicate the recorded GI50 value for this molecule: [N-]=[N+]=Nc1ccccc1Oc1ccccc1 > 100 µM (inactive)

Indicate the recorded GI50 value for this molecule: N#CC(NC12CC3CC(CC(C3)C1)C2)c1ccc2c(c1)OCO2 (configuration not stated) > 100 µM (inactive)

Indicate the recorded GI50 value for this molecule: Cc1cc(C)nc(SC(C)C(=O)N/N=C/c2ccc(OCc3ccccc3)cc2)n1 (configuration not stated) 32.1 µM (inactive)

====

# Test system: T47D
# assay-method-text: NCI tumour cell line growth inhibition, 48 h
Activity calls are given as the source filed them. Cut-off read from the data, not from the text of the source: active = GI50 up to about 1.1 µM and inactive = higher.
Please state which outcome applies, choosing from active, inactive

Outcome? O/N=N/c1ccc([SH2]c2ccc3ccccc3c2)cn1 inactive

Outcome? O=S1(=O)C(c2ccccc2)=C(O)c2ccccc21 inactive

Outcome? COc1ccc(OC)c2c1ccc1c(C)c3ccccc3c(C)c12 inactive

Outcome? CC(C)(C)OC(=O)NC1CCCC1C(=O)C1=CCCC1 (stereo unspecified) inactive

Outcome? O=C(NNS(=O)(=O)c1ccc(Br)cc1)c1ccc(Cl)cc1NC(=O)C12CC3CC(CC(C3)C1)C2 inactive

Outcome? O=C(NCc1cccnc1)NCc1cccnc1 inactive

Outcome? O=c1c2ccc(S(=O)(=O)c3ccc4c(=O)n5c6ccccc6nc5c5cccc3c45)c3cccc(c32)c2nc3ccccc3n12 inactive

Outcome? CN(C)CCCN1c2ccccc2Sc2cnccc21 inactive

Outcome? CCOC(=O)c1sc2ncnc(N)c2c1C inactive

Outcome? COc1ccc(NC(=S)N/N=C2\C(=O)Nc3ccccc32)cc1 inactive

Outcome? CCCCCC1=C/C(=C\c2[nH]c(-c3ccc[nH]3)cc2OC)N=C1C active

====

# Test system: OVCAR-8
# assay-method-text: NCI tumour cell line growth inhibition, 48 h
Active and inactive are the calls of the source. Rule as the data show it: active = GI50 up to about 1.1 µM and inactive = higher.
measured-parameter: GI50

Recall the reported GI50 of N#CC1(C#N)NC(c2ccccc2)C(C#N)(C#N)NC1c1ccccc1 (stereo not given) on OVCAR-8 and write it down. > 100 µM (inactive)

Recall the reported GI50 of CCCCC(=O)Nc1ccc2cc(C(=O)OC)c(=O)[nH]c2n1 on OVCAR-8 and write it down. > 100 µM (inactive)

Recall the reported GI50 of CCCCCCCCCCCCCCCCNc1ccn(C2CC(OP(=O)(O)OCC3OC(n4cc(CC)c(=O)[nH]c4=O)CC3O)C(CO)O2)c(=O)n1 (stereo not given) on OVCAR-8 and write it down. 20 µM (inactive)

Recall the reported GI50 of O=C(c1cccs1)N1CCN(C(=O)c2cccs2)C1=S on OVCAR-8 and write it down. 5.32 µM (inactive)

Recall the reported GI50 of CCCCCCCCCCNC(=S)OC on OVCAR-8 and write it down. 48.2 µM (inactive)

Recall the reported GI50 of COc1cc2oc3cc(=O)cc4oc(-c5ccccc5)cc(c2c2c1CCC(c1ccccc1)O2)c43 (stereo not given) on OVCAR-8 and write it down. 50 µM (inactive)

Recall the reported GI50 of CCSc1cc(C(=O)OC)c2n(c1=O)CCCC2 on OVCAR-8 and write it down. > 100 µM (inactive)

Recall the reported GI50 of O=C(O)Cc1cc(=O)[nH]c2c1/C(=N/O)CCC2 on OVCAR-8 and write it down. > 100 µM (inactive)

Recall the reported GI50 of CC(C)(C)c1cc(C(C)(C)C)c(P=C(Cl)Cl)c(C(C)(C)C)c1 (stereo not given) on OVCAR-8 and write it down. > 100 µM (inactive)

Recall the reported GI50 of COc1ccc(-c2nc(SC)n(C3OC(COC(C)=O)C(OC(C)=O)C(OC(C)=O)C3OC(C)=O)c(=O)c2C#N)cc1 (stereo not given) on OVCAR-8 and write it down. 79.3 µM (inactive)
